assay: growth suppression of yeast trafficking mutant, preliminary HTS, modulators of trafficking downstream of Golgi apparatus project, 1536-format plate, OD 615 nm (AID 637); settings: yeast transport mutant growth, absorbance 615 nm, 18 h; stronger effect = higher value
value_type: inhibition (%)
The response must be a number in % with no trailing unit.

>>> readout_value("O=S(=O)(NCC(c1cccnc1)N1CCN(c2ccccc2)CC1)c1cc(F)ccc1F (stereo unspecified)")
92
>>> readout_value("O=C(O)c1cccc(CN2C(=O)SC(Nc3ccccc3)C2=O)c1 (stereo unspecified)")
2.95
>>> readout_value("COc1ccccc1C1CC(c2ccc(C)cc2)Nc2ncnn21 (stereo unspecified)")
-3.17

stdin: Tell me its inhibition given COCCN(C(=O)Cn1nnc2ccccc21)C(C(=O)NC1CCCC1)c1cc(OC)ccc1OC (stereo unspecified) as the entry.
stdout: -4.92

stdin: Specify measured inhibition for `COc1cccc(-n2nc(C(=O)Nc3ccc4c(c3)OCO4)c3ccccc3c2=O)c1` .
stdout: -1.27

stdin: Recall and state the measured inhibition for `CCOCCCNc1ncnc2c1[nH]c1ccccc12` .
stdout: 1.31

stdin: # return recorded inhibition for entry `COCCNc1oc(-c2ccc(C)cc2)nc1C#N`
stdout: 3.33

---

test: 384-well plate pilot, post-Golgi transport modulator project, inhibition of yeast transport mutant growth (AID 636); details: absorbance 615 nm, about 18 h, stronger effect = higher value
In this section we review reported inhibition values for a set of compounds.
Answer with a number only, understood to be in %.

>>> readout_value("Clc1ccc2nc(N3CCCCC3)[nH]c2c1")
-7.84
>>> readout_value("CCOC(=O)c1[nH]c2ccc(OC)cc2c1NC(=O)CCN1CCC(C)CC1")
-3.12
>>> readout_value("CCOC(=O)Nc1ccc2c(CN3C(=O)NC4(CCCC4)C3=O)cc(=O)oc2c1")
-6.58
>>> readout_value("c1ccc2c(c1)Cn1c-2nc2ccccc21")
-6.35
>>> readout_value("CCC(=O)c1ccc(OC(=O)c2ccc(Br)o2)cc1")
-4.67

stdin: Assign inhibition to the following record: Cc1cc(C)c(C#N)c(SCc2[nH]nc3c2C(c2ccccc2)C(C#N)=C(N)O3)n1 (stereo unspecified)
stdout: -5.33

---

assay: growth inhibitors of H69AR lung tumor, primary screen, human, duplicate replicates (AID 580); settings: H69AR lung tumor cells viability, ATP luminescence, 72 h; at 10 µM; stronger effect = lower value;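 note: 100% = mean luminescence of untreated wells and 0% = no signal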
The source made the active and inactive calls.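 How the source made its calls: active means viability at or under a set limit in both replicates, limit being median viability minus 3 SD (cut at about 48% in these data, passing the limit was not always enough); inconclusive means at or under the limit in just one replicate; inactive means at or above the limit in both replicates.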
value_type: viability

Use the examples below as a reference point.
>>> readout_value("COc1ccc(-c2nnc3sc(-c4c(OC)cccc4OC)nn23)cc1")
"75.9% (inactive)"
>>> readout_value("COC(=O)c1ccccc1NS(=O)(=O)c1ccc(F)cc1")
"102% (inactive)"
>>> readout_value("O=C1c2ccccc2CN1CCNS(=O)(=O)c1ccc(Cl)cc1")
"88% (inactive)"
>>> readout_value("OCCNCC(O)Cn1ccc2ccccc21 (stereo not drawn)")
"88.6% (inactive)"

stdin: Item `Cn1nnnc1SCC(=O)N1CCN(c2cccc(Cl)c2)CC1` : provide viability
stdout: 85.6% (inactive)

stdin: Return value of viability for input `COc1cccc(-c2noc(-c3cccs3)n2)c1` , no commentary.
stdout: 81.5% (inactive)

---

Measured viability accompanies every entry in the list below.
assay: SK-BR-3 cell growth inhibitors, pilot screen, 24 h, human (AID 572); settings: SK-BR-3 viability, CellTiter-Glo luminescence, at 10 µM, stronger effect = lower value;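 note: compound exposure lasted between 18 and 24 h rather than exactly 24 h; 100% = carrier-treated control wells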
Report the figure in % without appending any unit label.

// solved cases for viability follow
>>> readout_value("CC1CCN(C(=O)Cn2c(=O)oc3ccccc32)CC1")
86.5
>>> readout_value("Cc1cc2c(c(=O)n1CCc1ccccc1)C(C(C)C)C(C#N)=C(N)O2 (stereo unspecified)")
95
>>> readout_value("COCC(C)NC(=O)NC(=O)c1ccc(Cl)cc1 (stereo unspecified)")
99.5
>>> readout_value("COc1cc2c(c(OC)c1)C(c1ccncc1)CC(=O)N2 (stereo unspecified)")
89

Turning to the following compound.
stdin: Please give the documented viability of `Oc1cnc2ccccc2c1CN1CCOCC1`
stdout: 98.5
